Study target: HA of ca A/Netherlands/219/03 (H7N7) (influenza A virus)
Protocol: cell-based or functional assay
Each entry below carries its reported Neutralization IC50, H7-NLD03.
Give just the numeric value; µg/mL need not be written.

Past entries and their recorded results:
INSERT INTO assay_data (binder, obs_value) VALUES
  ('Antibody 14 (antibody, V domains shown) VH: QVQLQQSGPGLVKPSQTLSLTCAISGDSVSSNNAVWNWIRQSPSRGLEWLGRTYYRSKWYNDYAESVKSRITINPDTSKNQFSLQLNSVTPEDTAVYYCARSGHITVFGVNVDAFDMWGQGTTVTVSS VL: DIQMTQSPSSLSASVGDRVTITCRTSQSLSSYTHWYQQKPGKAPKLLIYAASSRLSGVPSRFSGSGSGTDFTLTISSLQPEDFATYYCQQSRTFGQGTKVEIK', 1.16),
  ('Antibody 3 (antibody, V domains shown) VH: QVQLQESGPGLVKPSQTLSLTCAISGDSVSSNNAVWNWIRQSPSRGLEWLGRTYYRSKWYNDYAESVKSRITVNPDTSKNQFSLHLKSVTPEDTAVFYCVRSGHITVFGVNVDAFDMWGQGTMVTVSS VL: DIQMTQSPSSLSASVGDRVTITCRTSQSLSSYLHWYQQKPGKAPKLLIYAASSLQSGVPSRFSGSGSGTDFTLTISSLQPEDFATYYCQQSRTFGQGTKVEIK', 4.74);

# next binder below
Determine its reported Neutralization IC50, H7-NLD03: Antibody 13 (antibody, V domains shown) VH: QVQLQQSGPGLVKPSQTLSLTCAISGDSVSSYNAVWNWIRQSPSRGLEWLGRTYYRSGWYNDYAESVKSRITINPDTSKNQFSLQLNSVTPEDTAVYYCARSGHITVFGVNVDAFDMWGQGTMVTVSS VL: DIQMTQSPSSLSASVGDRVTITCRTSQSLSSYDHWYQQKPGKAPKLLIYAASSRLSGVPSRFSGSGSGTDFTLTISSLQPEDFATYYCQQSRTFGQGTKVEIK
2.45
